TARGET OR SYSTEM: human NEP (Homo sapiens)
Construct: purchased R&D Systems, Minneapolis, MN 1182-ZN
Sequence (P08473 52-750 limits assumed): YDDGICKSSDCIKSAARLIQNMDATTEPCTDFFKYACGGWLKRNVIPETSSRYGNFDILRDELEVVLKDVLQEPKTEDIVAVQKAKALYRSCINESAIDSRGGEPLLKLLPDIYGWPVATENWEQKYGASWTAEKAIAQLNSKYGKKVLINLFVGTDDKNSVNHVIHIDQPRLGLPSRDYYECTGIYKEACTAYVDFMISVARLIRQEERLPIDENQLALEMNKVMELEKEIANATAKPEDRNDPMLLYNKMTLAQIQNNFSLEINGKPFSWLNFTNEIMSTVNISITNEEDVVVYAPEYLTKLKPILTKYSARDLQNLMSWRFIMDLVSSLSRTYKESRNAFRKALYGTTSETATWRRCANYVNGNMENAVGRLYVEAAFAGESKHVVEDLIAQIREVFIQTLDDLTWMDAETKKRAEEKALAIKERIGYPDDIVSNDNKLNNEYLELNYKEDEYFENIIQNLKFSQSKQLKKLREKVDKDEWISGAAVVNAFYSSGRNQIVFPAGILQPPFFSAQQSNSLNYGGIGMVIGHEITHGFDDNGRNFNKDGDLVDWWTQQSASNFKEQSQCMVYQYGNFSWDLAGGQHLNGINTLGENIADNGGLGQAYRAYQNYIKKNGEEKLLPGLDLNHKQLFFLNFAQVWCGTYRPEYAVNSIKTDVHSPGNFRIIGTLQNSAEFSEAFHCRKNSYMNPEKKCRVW
PROCEDURE SUMMARY: In vitro enzyme inhibition assay at human NEP (fluorogenic peptide substrate)
Assay type: biochemical
TEST PARAMETERS: recombinant human NEP; 10 μM fluorogenic substrate Mca-D-Arg-Arg-Leu-Dap-(Dnp)-OH; 37° C.; 30 minute preincubation; read-out: pKi value at human NEP (converted)
PARAMETER: Ki

Given the entry COc1cc(C(=O)N[C@H](Cc2ccc(-c3cc(Cl)ccc3F)cc2)C[C@@](C)(CO)C(=O)O)on1 [Example 6G] , report its measured Ki.
≤ 1 nM

Which Ki is reported for this compound? CC(C)C(=O)OC[C@](C)(C[C@@H](Cc1ccc(-c2ccccc2)cc1)NC(=O)c1cnn[nH]1)C(=O)O [Example 1E]
≤ 1 nM

Would you mind telling me what Ki value was observed for CCOC[C@](C)(C[C@@H](Cc1ccc(-c2cccc(Cl)c2)cc1)NC(=O)c1cnn[nH]1)C(=O)O [Example 2K] ?
≤ 1 nM

State the recorded Ki for this entry: CCCCCOC[C@](C)(C[C@@H](Cc1ccc(-c2cc(Cl)ccc2F)cc1)NC(=O)c1cnn[nH]1)C(=O)O [Example 2Q]
1 to 3.16 nM
